testedOn: OTU domain-containing protein 3 (Homo sapiens) (UniProt Q5T2D3)
Sequence (Q5T2D3 whole entry, looked up, the tested form may be a part): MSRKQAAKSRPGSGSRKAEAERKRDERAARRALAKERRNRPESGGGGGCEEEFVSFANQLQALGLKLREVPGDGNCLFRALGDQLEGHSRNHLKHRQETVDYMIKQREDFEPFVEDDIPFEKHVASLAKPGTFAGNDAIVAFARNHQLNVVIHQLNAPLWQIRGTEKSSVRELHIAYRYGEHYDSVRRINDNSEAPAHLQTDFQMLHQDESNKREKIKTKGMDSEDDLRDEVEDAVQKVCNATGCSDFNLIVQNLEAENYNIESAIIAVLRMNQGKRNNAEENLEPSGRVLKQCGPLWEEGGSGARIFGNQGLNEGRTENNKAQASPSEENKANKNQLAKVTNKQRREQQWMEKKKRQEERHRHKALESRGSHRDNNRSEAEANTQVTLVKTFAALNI
assayRemarks: Validation of screening hits, potency titration, in vitro enzymatic, OTU domain-containing protein 3 DUB inhibitors (AID 1645868)
experimentalSetup: purified OTUD3, ubiquitin-rhodamine cleavage fluorescence, 2 h
Calls of active or inactive are those of the source.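 Rule for the calls: active = maximal percent inhibition of the deubiquitinase OTUD3 of at least 30% across the tested doses; inactive = the rest.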
Returns: one label drawn from active, inactive

For orientation, consider the following solved cases.
- O=C(Nc1ccc(-c2nnc3n2CCCCC3)cc1)c1ccc2c(c1)OCO2: inactive
- CCCCc1ccc(-c2cc(C(=O)NCCN3CCOCC3)c3cc(Br)ccc3n2)cc1: active
- CCCCNC(=O)c1cc2cccnc2n(Cc2ccccc2)c1=O: inactive
- COC(=O)c1ccc(NC(=O)CSc2nnc(-c3ccc(O)cc3)n2Cc2ccco2)cc1: inactive
- Cc1sc2ncnc(OCc3ccc(F)cc3Cl)c2c1C: inactive
- Cc1sc2ccn(C)c(=O)c2c1C(=O)NC1CCCC1: active

Task: Write down the call the test reported for this compound. Item: N#Cc1c(-c2ccccc2)ccn(Cc2cccc(C(F)(F)F)c2)c1=O
Output: inactive

Task: Write down the call the test reported for this compound. Item: CC1(C)Cc2c(sc3nc(Cc4ccccc4)nc(SCC(=O)Nc4ccccc4)c23)CO1
Output: active

Task: Write down the call the test reported for this compound. Item: COc1ccc2[nH]cc(S(=O)(=O)c3ccc(C)c(F)c3)c(=O)c2c1
Output: active

Reference source for all entries: PubChem BioAssay AID1645868
